test: physchem; conditions: water
Description: Solubility was evaluated in water at 25 degree Centigrade
solubility values, listed per item

Some solved entries appear below for comparison.
substance.smiles	solubility
NS(=O)(=O)c1cc2cc(CNCc3ccccn3)sc2o1	20.4 mg/mL
CC(C)CNCc1cc2cc(S(N)(=O)=O)oc2s1	15.3 mg/mL
NS(=O)(=O)c1cc2cc(CNCCCCO)sc2o1	> 47 mg/mL

Query: What does the data say about its solubility? Entry: CCOCCNCc1cc2cc(S(N)(=O)=O)oc2s1
Result: 40.8 mg/mL

Query: Try this molecule next: COCCNCc1cc2cc(S(N)(=O)=O)oc2s1
Result: > 27 mg/mL

Query: Try this molecule next: COCCCNCc1cc2cc(S(N)(=O)=O)oc2s1
Result: > 34 mg/mL

Query: Try this molecule next: CNCc1cc2cc(S(N)(=O)=O)oc2s1
Result: > 51 mg/mL

Query: Try this molecule next: NS(=O)(=O)c1cc2cc(CNCCF)sc2o1
Result: > 32 mg/mL

Query: Try this molecule next: NS(=O)(=O)c1cc2cc(CN3CCOCC3)sc2o1
Result: > 4.7 mg/mL

Query: Try this molecule next: CCCNCc1cc2cc(S(N)(=O)=O)oc2s1
Result: > 22.5 mg/mL

Query: Try this molecule next: COCCN(CCOC)Cc1cc2cc(S(N)(=O)=O)oc2s1
Result: > 30 mg/mL

----------
Here's what we have: IC50 numbers for Carbonic anhydrase 2 (Homo sapiens, UniProt P00918).
readout.kind: IC50 (nM)

substance.smiles	unit.descriptor	IC50
CCCNCc1cc2cc(S(N)(=O)=O)oc2s1	nM	8
NS(=O)(=O)c1cc2cc(CNCc3ccccn3)sc2o1	nM	8.2
NS(=O)(=O)c1cc2cc(CNCCCCO)sc2o1	nM	11
COCCN(CCOC)Cc1cc2cc(S(N)(=O)=O)oc2s1	nM	5.1
NS(=O)(=O)c1cc2cc(CN3CCOCC3)sc2o1	nM	5.6

----------
assay: physchem; details: water
readout.kind: pKa

substance.smiles	readout.kind	observed
COCCOCCN(CCOC)Cc1cc2cc(S(N)(=O)=O)oc2s1	pKa	5.55
CC(C)CNCc1cc2cc(S(N)(=O)=O)oc2s1	pKa	7.55
COCCN(CCOC)Cc1cc2cc(S(N)(=O)=O)oc2s1	pKa	5.57
CNCc1cc2cc(S(N)(=O)=O)oc2s1	pKa	7.85
NS(=O)(=O)c1cc2cc(CNCCCCO)sc2o1	pKa	7.65
COCCCNCc1cc2cc(S(N)(=O)=O)oc2s1	pKa	7.25
NS(=O)(=O)c1cc2cc(CNCCF)sc2o1	pKa	6.55
CCCNCc1cc2cc(S(N)(=O)=O)oc2s1	pKa	7.85
NS(=O)(=O)c1cc2cc(CNCc3ccccn3)sc2o1	pKa	7.02

----------
assay: physchem; settings: 30% ethanol
readout.kind: pKa

substance.smiles	pKa
NS(=O)(=O)c1cc2cc(CNCCCCO)sc2o1	9.16
COCCOCCN(CCOC)Cc1cc2cc(S(N)(=O)=O)oc2s1	8.85
NS(=O)(=O)c1cc2cc(CNCc3ccccn3)sc2o1	9.08
COCCNCc1cc2cc(S(N)(=O)=O)oc2s1	9.05
COCCCNCc1cc2cc(S(N)(=O)=O)oc2s1	9
CNCc1cc2cc(S(N)(=O)=O)oc2s1	9.25
NS(=O)(=O)c1cc2cc(CN3CCOCC3)sc2o1	9.2
NS(=O)(=O)c1cc2cc(CNCCF)sc2o1	9
CC(C)CNCc1cc2cc(S(N)(=O)=O)oc2s1	9.1
CCCNCc1cc2cc(S(N)(=O)=O)oc2s1	9.4
CCOCCNCc1cc2cc(S(N)(=O)=O)oc2s1	8.9
COCCN(CCOC)Cc1cc2cc(S(N)(=O)=O)oc2s1	8.95
